# Tested on: M19-MEL melanoma
# PROTOCOL_DETAILS: NCI tumour cell line growth inhibition, 48 h
ENDPOINT_NAME: TGI

Entry `Nc1n[n+](-c2ccccc2)no1` needs its TGI filled in; supply it. > 100 µM

Entry COc1ccc2oc(C(=O)O)c3c2c1CCC3CCC(=O)O (stereo unspecified) needs its TGI filled in; supply it. > 100 µM

Entry `CCOC(=O)c1cnc2sc3ccc4ccccc4c3n2c1=O` needs its TGI filled in; supply it. > 100 µM

Entry `CN=C(N)c1ccc(N=C(N)c2ccc(C(N)=Nc3ccc(C(N)=NC)cc3)cc2)cc1` needs its TGI filled in; supply it. > 100 µM

Entry COc1cc(C(=O)CC2OC(=O)C(Cl)=C2Cl)ccc1Cl (stereo unspecified) needs its TGI filled in; supply it. > 100 µM

Entry `CCOC(=O)c1cnc2c(ccc3ncccc32)c1NCCCN(CC)CC` needs its TGI filled in; supply it. > 100 µM

###

I'd appreciate it if you could supply TGI values for the items below.
# Test system: K-562 leukemia
# PROTOCOL_DETAILS: NCI tumour cell line growth inhibition, 48 h

Entry `COc1ccc(N=NC(=Nc2ccc(Cl)cc2)c2ccc(N(CCC#N)CCC#N)cc2)cc1` needs its TGI filled in; supply it. > 100 µM

Entry `COc1cc(-c2csc(NC(=O)Nc3ccc(C(F)(F)F)cc3)n2)cc(OC)c1OC` needs its TGI filled in; supply it. > 100 µM

Entry O=C(/C=C/C12c3ccccc3C(c3ccccc31)C1C(=O)NC(=O)C12)c1ccc(F)cc1 (stereo not drawn) needs its TGI filled in; supply it. 4.75 µM

Entry `CC(C)C[C@H](NC(=O)[C@H](Cc1ccc(F)cc1)NC(=O)c1ccccn1)B(O)O` needs its TGI filled in; supply it. > 100 µM

Entry `OCCNc1nc(Nc2ccc(Cl)c(Cl)c2)nc2ccccc12` needs its TGI filled in; supply it. 10.8 µM

Entry `N#Cc1cc(S(=O)(=O)Nc2nnc(-c3ccccc3)c(-c3ccccc3)n2)c(SCc2ccccc2)cc1Cl` needs its TGI filled in; supply it. > 100 µM

Entry `Cc1ccc(NS(=O)(=O)c2cccc(C#N)c2)c2[nH]cc(C#N)c12` needs its TGI filled in; supply it. > 100 µM

Entry C=C1C(OC(=O)/C=C/c2ccccc2)CC(OC(C)=O)C2(C)C1CC1CC(OC(C)=O)C(C)=C(C(OC(C)=O)C2OC(C)=O)C1(C)C (stereo not drawn) needs its TGI filled in; supply it. > 100 µM

Entry C=C(CO)[C@@H]1CC[C@]2(COC3CCCCO3)CC[C@]3(C)[C@H](CC[C@@H]4[C@@]5(C)C=C(C=O)C(=O)C(C)(C)[C@@H]5CC[C@]43C)[C@@H]12 (stereo partly drawn) needs its TGI filled in; supply it. 1.28 µM

Entry `CCc1cc(CCC(=O)Nc2ccccc2[N+](=O)[O-])[nH]c(=S)n1` needs its TGI filled in; supply it. > 100 µM

Entry `Nc1ccc(C23CC4CC(C2)CC(c2ccc(N)cc2)(C4)C3)cc1` needs its TGI filled in; supply it. 36.8 µM

Entry COC(=O)C12OCC34C(CC5C(C)C6=CC(=O)OC6=CC5(C)C3C(O)C1O)OC(=O)C(O)C24 (stereo not drawn) needs its TGI filled in; supply it. 6.94 µM

Entry C[N+](C)(C)CC(=O)N/N=C(\C(=O)NC1=C(Cl)C(=O)c2ccccc2C1=O)C(C#N)c1nc(-c2ccc([N+](=O)[O-])cc2)cs1 (stereo not drawn) needs its TGI filled in; supply it. 61.1 µM

Entry `O=C(N/N=C/c1ccc([N+](=O)[O-])cc1)Nc1ccc(Br)cc1` needs its TGI filled in; supply it. > 100 µM

Entry CCCCCCCCCCCCCCCCCCNc1nc(=O)n(C2CC(O)C(COP(=O)(O)OCC3OC(n4ccc(N)nc4=O)C(O)C3O)O2)cc1F (stereo not drawn) needs its TGI filled in; supply it. > 100 µM

Entry `Cc1ccc2c(ccc(/C=C\c3cc(C)c4cccnc4c3O)[n+]2C)c1` needs its TGI filled in; supply it. > 100 µM

Entry `O=C1/C(=C/c2ccc(Cl)cc2)CCC/C1=C\c1ccc(Cl)cc1` needs its TGI filled in; supply it. > 100 µM

Entry C/C=C1\CN2CCc3c([nH]c4ccccc34)C2C=C1CCO (stereo not drawn) needs its TGI filled in; supply it. > 340 µM

###

# System: OVCAR-3 ovarian
# PROTOCOL_DETAILS: NCI tumour cell line growth inhibition, 48 h
ENDPOINT_NAME: TGI

Entry `Cc1ccc(C(=O)/C=C/c2cccc([N+](=O)[O-])c2)cc1` needs its TGI filled in; supply it. > 100 µM

Entry `COC(=O)C1=C(C)NC(C)=C(C(=O)OC)C1c1ccc(N=O)cc1` needs its TGI filled in; supply it. 26.9 µM

Entry `Clc1ccc(C[P+]2(c3ccccc3)CCCCC2)cc1` needs its TGI filled in; supply it. > 100 µM

Entry `COc1ccc2c(c1)C(=O)/C(=C/c1ccc([N+](=O)[O-])o1)O2` needs its TGI filled in; supply it. 2.22 µM

Entry `O=C(N/N=C/c1ccc([N+](=O)[O-])cc1)Nc1ccc(Br)cc1` needs its TGI filled in; supply it. > 100 µM

Entry `CN(C(=O)C1=CCC2(CC1)OCCO2)c1ccccc1I` needs its TGI filled in; supply it. > 100 µM

###

I'd appreciate it if you could supply GI50 values for the items below.
# Test system: NCI-H226 lung
# PROTOCOL_DETAILS: NCI tumour cell line growth inhibition, 48 h

Entry C=C1C(=O)O[C@H]2[C@H]1CC/C(COC(=O)C(C)c1ccc(CC(C)C)cc1)=C\CC[C@@]1(C)O[C@@H]21 (stereo not given in full) needs its GI50 filled in; supply it. 1.64 µM

Entry `CC(=O)[CH-]C(=O)c1ccccc1.CC(=O)[CH-]C(=O)c1ccccc1.Cc1cc([O-])ccc1Cl.Cc1cc([O-])ccc1Cl.[Ti+4]` needs its GI50 filled in; supply it. 20.2 µM

Entry `CN(CC(=O)Nc1nc2ccccc2[nH]1)S(=O)(=O)c1ccc(Cl)cc1` needs its GI50 filled in; supply it. > 100 µM

Entry `O=c1cc(-c2ccco2)[nH]c2cc3c(cc12)OCO3` needs its GI50 filled in; supply it. 24.4 µM

Entry `COc1cc(-c2csc(NC(=O)Nc3ccc(C(F)(F)F)cc3)n2)cc(OC)c1OC` needs its GI50 filled in; supply it. 2.35 µM

###

I'd appreciate it if you could supply GI50 values for the items below.
# Tested on: SK-OV-3 ovarian
# PROTOCOL_DETAILS: NCI tumour cell line growth inhibition, 48 h
Where a SMILES comes first, the peptide text is derived from it. [ ]: non-standard residue; d: D form. The star is where a group is joined. dTle = CC(C)(C)[C@@H](N)C(=O)O; 4Abz = Nc1ccc(C(=O)O)cc1; NHOH = ON*

Entry `O=[N+]([O-])c1cc(C(F)(F)F)ccc1Sc1ccc(C(F)(F)F)cc1[N+](=O)[O-]` needs its GI50 filled in; supply it. 7.65 µM

Entry `N#C/C(=C\c1ccc(Br)cc1)n1nnc2cc(Cl)c(Cl)cc21` needs its GI50 filled in; supply it. 4.33 µM

Entry `Fc1cccc(-n2ccc(-c3ccccc3)nc2=S)c1` needs its GI50 filled in; supply it. 1.59 µM

Entry `Cc1cn2c(/C=N/N=C(N)N)c(-c3ccccn3)nc2s1` needs its GI50 filled in; supply it. 26.8 µM

Entry Cc1ccc(C(=O)/C(=C\c2ccc([N+](=O)[O-])cc2)S(=O)Cc2ccc(Cl)cc2)cc1 (centres undefined) needs its GI50 filled in; supply it. 9.55 µM

Entry `NS(=O)(=O)NCCNc1nonc1C(=Nc1ccc(F)c(Br)c1)NO` needs its GI50 filled in; supply it. 67.4 µM

Entry C[C@@H](NC(=O)[C@H](NC(=O)[C@@H]1CCCN1C(=O)CNC(=O)c1ccc(N)cc1)C(C)(C)C)C(=O)NO (H-[4Abz]GP[dTle][dA]-{NHOH}) needs its GI50 filled in; supply it. > 100 µM

Entry `CN(CC(=O)Nc1nc2ccccc2[nH]1)S(=O)(=O)c1ccc(Cl)cc1` needs its GI50 filled in; supply it. > 100 µM

Entry `CCc1ccc(C(=Nc2ccc(N(C)C(=O)CN3CCN(C)CC3)cc2)c2c(O)[nH]c3ccc(C(=O)OC)cc23)cc1` needs its GI50 filled in; supply it. 0.245 µM
